Reported Kd values follow for various binders
testTarget: T1, Mts1 (S100A4) protein, recombinant human (human, UniProt P26447 1-101, Alexa Fluor 633 label (only in the thermophoresis with Tag7, 17.1, 17.1A and 17.1B))
T1 construct: cDNA subcloned into pQE-30; PDB 3NCF is printed for Mts1 but may be a misprint; also called metastasin 1; full-sized Mts1; source: E. coli M15 (pREP4), pQE-30, purified (HisTrap FF)
T1 sequence (P26447 whole entry, one chain of several): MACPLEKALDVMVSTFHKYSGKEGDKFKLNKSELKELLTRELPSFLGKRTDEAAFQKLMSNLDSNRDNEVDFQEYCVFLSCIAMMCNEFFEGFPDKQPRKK
procedureText: MST; Mts1 labelled with Alexa Fluor 633 (200 nM), preincubated 20 min in the dark at room temperature with 16 concentrations of Tag7 or peptide; Monolith NT.115, 10% IR laser power; apparent Kd
experimentalSetup: both partners purified
parameter: Kd (nM)

INSERT INTO results (binder, readoutvalue) VALUES
  ('HRDVQRT (source: synthetic peptide (Fmoc, HPLC purified)) [peptide 17.1B of Tag7 (PGLYRP1)]', 7.26),
  ('RSNYVLKG (source: synthetic peptide (Fmoc, HPLC purified)) [peptide 17.1A of Tag7 (PGLYRP1)]', 109);
